# measured-target: E3 ubiquitin-protein ligase Mdm2 (Homo sapiens, UniProt Q00987)
# Sequence (Q00987 whole entry): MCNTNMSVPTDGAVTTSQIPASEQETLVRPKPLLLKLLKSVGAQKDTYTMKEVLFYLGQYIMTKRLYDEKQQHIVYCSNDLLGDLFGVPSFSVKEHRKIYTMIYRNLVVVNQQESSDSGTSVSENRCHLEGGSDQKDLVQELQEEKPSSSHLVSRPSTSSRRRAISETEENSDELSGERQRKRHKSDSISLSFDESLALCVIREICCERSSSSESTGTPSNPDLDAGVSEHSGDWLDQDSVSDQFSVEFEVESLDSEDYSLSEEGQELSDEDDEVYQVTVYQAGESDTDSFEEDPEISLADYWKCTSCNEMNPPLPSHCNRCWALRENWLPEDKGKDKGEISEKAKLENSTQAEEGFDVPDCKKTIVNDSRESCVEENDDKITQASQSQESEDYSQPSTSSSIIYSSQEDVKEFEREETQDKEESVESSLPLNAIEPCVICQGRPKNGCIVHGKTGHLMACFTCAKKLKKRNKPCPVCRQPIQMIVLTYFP
recorded-metric: pIC50
// returns pIC50 (minus log10 of molar concentration), number only

Lab request: please report pIC50 under test system E3 ubiquitin-protein ligase Mdm2 (Homo sapiens, UniProt Q00987) for COc1cc(NC(=O)C[C@@]2(C)C[C@H](c3cccc(Cl)c3)[C@@H](c3ccc(Cl)c(F)c3)N([C@H](CS(=O)(=O)C(C)(C)C)C3CC3)C2=O)ccc1C(=O)O
9.22

* * *

# method-notes: Clearance in iv dosed dog
# Format: ADME, organism-based, Canis lupus familiaris
# test-context: in vivo
recorded-metric: clearance (mL/min/kg)
Provide the reading as a plain figure in mL/min/kg.

// lookup clearance for COc1cc(NC(=O)C[C@@]2(C)C[C@H](c3cccc(Cl)c3)[C@@H](c3ccc(Cl)c(F)c3)N([C@H](CS(=O)(=O)C(C)(C)C)C3CC3)C2=O)ccc1C(=O)O
11.5

* * *

# method-notes: Oral bioavailability in mouse
# Format: ADME, organism-based
# test-context: in vivo
recorded-metric: bioavailability (%)
Provide the reading as a plain figure in %.

// lookup bioavailability for COc1cc(NC(=O)C[C@@]2(C)C[C@H](c3cccc(Cl)c3)[C@@H](c3ccc(Cl)c(F)c3)N([C@H](CS(=O)(=O)C(C)(C)C)C3CC3)C2=O)ccc1C(=O)O
30

* * *

# measured-target: E3 ubiquitin-protein ligase Mdm2 (Homo sapiens, UniProt Q00987)
recorded-metric: Kd (pM)
Provide the reading as a plain figure in pM.

Lab request: please report Kd under test system E3 ubiquitin-protein ligase Mdm2 (Homo sapiens, UniProt Q00987) for COc1cc(NC(=O)C[C@@]2(C)C[C@H](c3cccc(Cl)c3)[C@@H](c3ccc(Cl)c(F)c3)N([C@H](CS(=O)(=O)C(C)(C)C)C3CC3)C2=O)ccc1C(=O)O
38

* * *

# measured-target: UniProt:Q00987
recorded-metric: IC50

// lookup IC50 for CC(C)(C)S(=O)(=O)C[C@H](C1CC1)N1C(=O)[C@@](C)(CC(=O)O)C[C@H](c2cccc(Cl)c2F)[C@H]1c1ccc(Cl)cc1
< 0.1 nM

* * *

# measured-target: PXR (NR1I2) (Homo sapiens, UniProt O75469)
# Sequence (O75469 whole entry): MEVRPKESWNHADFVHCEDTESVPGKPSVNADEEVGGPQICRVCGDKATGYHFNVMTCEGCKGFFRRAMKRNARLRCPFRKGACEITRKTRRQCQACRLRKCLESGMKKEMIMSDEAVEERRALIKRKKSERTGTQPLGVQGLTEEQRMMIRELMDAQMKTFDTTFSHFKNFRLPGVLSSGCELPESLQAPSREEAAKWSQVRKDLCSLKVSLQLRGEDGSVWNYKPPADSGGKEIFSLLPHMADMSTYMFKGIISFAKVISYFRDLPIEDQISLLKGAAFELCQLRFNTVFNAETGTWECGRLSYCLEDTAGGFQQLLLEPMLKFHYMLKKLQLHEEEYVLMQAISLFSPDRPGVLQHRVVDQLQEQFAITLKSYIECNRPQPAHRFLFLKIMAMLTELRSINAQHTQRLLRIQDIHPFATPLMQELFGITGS
# method-notes: Activation of human PXR at 2 uM relative to control
# Assay type: ADME
# test-context: read-out: Activity
recorded-metric: activity at 2 µM (%)
Provide the reading as a plain figure in %.

Lab request: please report activity at 2 µM under test system PXR (NR1I2) (Homo sapiens, UniProt O75469) for COc1cc(NC(=O)C[C@@]2(C)C[C@H](c3cccc(Cl)c3)[C@@H](c3ccc(Cl)cc3)N([C@H](CS(=O)(=O)C(C)(C)C)C3CC3)C2=O)ccc1C(=O)O
14

Lab request: please report activity at 2 µM under test system PXR (NR1I2) (Homo sapiens, UniProt O75469) for CC(C)(C)S(=O)(=O)C[C@H](C1CC1)N1C(=O)[C@@](C)(CC(=O)Nc2ccc(C(=O)O)cc2)C[C@H](c2cccc(Cl)c2)[C@H]1c1ccc(Cl)cc1
0

Lab request: please report activity at 2 µM under test system PXR (NR1I2) (Homo sapiens, UniProt O75469) for COc1cc(NC(=O)C[C@@]2(C)C[C@H](c3cccc(Cl)c3F)[C@@H](c3ccc(Cl)cc3)N([C@H](CS(=O)(=O)C(C)(C)C)C3CC3)C2=O)ccc1C(=O)O
0

Lab request: please report activity at 2 µM under test system PXR (NR1I2) (Homo sapiens, UniProt O75469) for CC(C)(C)S(=O)(=O)C[C@H](C1CC1)N1C(=O)[C@@](C)(CC(=O)NC23CCC(C(=O)O)(CC2)CC3)C[C@H](c2cccc(Cl)c2)[C@H]1c1ccc(Cl)cc1
0

Lab request: please report activity at 2 µM under test system PXR (NR1I2) (Homo sapiens, UniProt O75469) for COc1cc(NC(=O)C[C@@]2(C)C[C@H](c3cccc(Cl)c3)[C@@H](c3ccc(Cl)c(F)c3)N([C@H](CS(=O)(=O)C(C)(C)C)C3CC3)C2=O)ccc1C(=O)O
0

* * *

# method-notes: Antiproliferative activity p53 -deficient human HCT116 cells after 16 hrs by BrdU proliferation assay
# Type: functional, cell-based
# test-context: HCT-116, 16 h
recorded-metric: IC50

// lookup IC50 for COc1cc(NC(=O)C[C@@]2(C)C[C@H](c3cccc(Cl)c3)[C@@H](c3ccc(Cl)c(F)c3)N([C@H](CS(=O)(=O)C(C)(C)C)C3CC3)C2=O)ccc1C(=O)O
> 25 µM

* * *

# method-notes: Oral bioavailability in dog
# Format: ADME, organism-based, Canis lupus familiaris
# test-context: in vivo
recorded-metric: bioavailability (%)
Provide the reading as a plain figure in %.

// lookup bioavailability for COc1cc(NC(=O)C[C@@]2(C)C[C@H](c3cccc(Cl)c3)[C@@H](c3ccc(Cl)c(F)c3)N([C@H](CS(=O)(=O)C(C)(C)C)C3CC3)C2=O)ccc1C(=O)O
45

* * *

activity at 0.5 h, 10 µM values, listed per item
# measured-target: CYP3A4 (Homo sapiens, UniProt P08684)
# Sequence (P08684 whole entry): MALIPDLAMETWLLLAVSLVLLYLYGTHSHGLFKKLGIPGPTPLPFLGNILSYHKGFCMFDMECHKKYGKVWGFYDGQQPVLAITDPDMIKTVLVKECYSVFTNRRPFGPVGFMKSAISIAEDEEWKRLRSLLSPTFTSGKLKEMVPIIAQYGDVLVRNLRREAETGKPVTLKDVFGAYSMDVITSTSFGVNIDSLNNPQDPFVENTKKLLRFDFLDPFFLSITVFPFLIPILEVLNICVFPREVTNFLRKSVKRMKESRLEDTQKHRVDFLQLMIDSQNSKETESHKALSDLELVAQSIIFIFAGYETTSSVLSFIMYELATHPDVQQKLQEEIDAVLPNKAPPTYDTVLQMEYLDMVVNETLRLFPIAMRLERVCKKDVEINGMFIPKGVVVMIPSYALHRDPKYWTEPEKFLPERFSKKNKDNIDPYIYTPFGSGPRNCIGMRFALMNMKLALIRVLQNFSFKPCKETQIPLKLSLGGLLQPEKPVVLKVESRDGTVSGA
# method-notes: Time-dependent inhibition of CYP3A4 (unknown origin) assessed as remaining activity at 10 uM after 30 mins
# Format: ADME
# test-context: read-out: Activity
Provide the reading as a plain figure in %.

These recorded examples may help you get a feel for the data.
COc1cc(NC(=O)C[C@@]2(C)C[C@H](c3cccc(Cl)c3)[C@@H](c3ccc(Cl)c(F)c3)N([C@H](CS(=O)(=O)C(C)(C)C)C3CC3)C2=O)ccc1C(=O)O: 63
COc1cc(NC(=O)C[C@@]2(C)C[C@H](c3cccc(Cl)c3)[C@@H](c3ccc(Cl)cc3)N([C@H](CS(=O)(=O)C(C)(C)C)C3CC3)C2=O)ccc1C(=O)O: 85
CC(C)(C)S(=O)(=O)C[C@H](C1CC1)N1C(=O)[C@@](C)(CC(=O)NC23CCC(C(=O)O)(CC2)CC3)C[C@H](c2cccc(Cl)c2)[C@H]1c1ccc(Cl)cc1: 75
COc1cc(NC(=O)C[C@@]2(C)C[C@H](c3cccc(Cl)c3F)[C@@H](c3ccc(Cl)cc3)N([C@H](CS(=O)(=O)C(C)(C)C)C3CC3)C2=O)ccc1C(=O)O: 72

// lookup activity at 0.5 h, 10 µM for CC(C)(C)S(=O)(=O)C[C@H](C1CC1)N1C(=O)[C@@](C)(CC(=O)Nc2ccc(C(=O)O)cc2)C[C@H](c2cccc(Cl)c2)[C@H]1c1ccc(Cl)cc1
78

* * *

inhibition at 3 µM values, listed per item
# measured-target: CYP3A4 (Homo sapiens, UniProt P08684)
# method-notes: Inhibition of CYP3A4 (unknown origin) at 3 uM
# Format: ADME

These recorded examples may help you get a feel for the data.
COc1cc(NC(=O)C[C@@]2(C)C[C@H](c3cccc(Cl)c3F)[C@@H](c3ccc(Cl)cc3)N([C@H](CS(=O)(=O)C(C)(C)C)C3CC3)C2=O)ccc1C(=O)O: 14%
COc1cc(NC(=O)C[C@@]2(C)C[C@H](c3cccc(Cl)c3)[C@@H](c3ccc(Cl)c(F)c3)N([C@H](CS(=O)(=O)C(C)(C)C)C3CC3)C2=O)ccc1C(=O)O: < 10%
CC(C)(C)S(=O)(=O)C[C@H](C1CC1)N1C(=O)[C@@](C)(CC(=O)Nc2ccc(C(=O)O)cc2)C[C@H](c2cccc(Cl)c2)[C@H]1c1ccc(Cl)cc1: < 10%
COc1cc(NC(=O)C[C@@]2(C)C[C@H](c3cccc(Cl)c3)[C@@H](c3ccc(Cl)cc3)N([C@H](CS(=O)(=O)C(C)(C)C)C3CC3)C2=O)ccc1C(=O)O: 14%

// lookup inhibition at 3 µM for CC(C)(C)S(=O)(=O)C[C@H](C1CC1)N1C(=O)[C@@](C)(CC(=O)NC23CCC(C(=O)O)(CC2)CC3)C[C@H](c2cccc(Cl)c2)[C@H]1c1ccc(Cl)cc1
< 10%
